Test system: ACHN renal
Assay: NCI-60 one-dose screen, 48 h (100 = growth as untreated, 0 = no growth, -100 = all killed)
Settings: 10 µM unless noted
The panel holds about 83,000 compounds, 20% with a hit somewhere; the sample as a whole holds those more often.
measure: growth (%)
Reply with just the number (in %).

Lab note: need growth with ACHN renal for entry CN(C)Cc1ccccn1 , please look it up.
102

Then Cc1ccccc1NC(=O)Oc1ccc(Cl)cc1C(=O)c1ccccc1 ?
88.1

Then CCCCCCCCCCCCCCCCOc1ccccc1NC(=O)CC(C)=O ?
98.6

Then COC(=O)C1(CC(C)=O)NC(=S)NC(=O)C1C#N (stereo not drawn) ?
109

Then CC1CCC(C)(C)c2ccccc21 (stereo not drawn) ?
98.4

Then CC(C)c1ncc([N+](=O)[O-])n1C ?
102

Then CCOC(=O)CSCCC#N ?
95.2

Then CCN(Cc1ccc(Cl)c(Cl)c1)c1ccc2nc(N)nc(N)c2c1C ?
-95.6

Then COc1cc(OC)c2cc(C(=O)c3ccc(C#N)cc3)c(=O)oc2c1 ?
95.2

Then O=C1C=C(c2ccccc2)C(O)(c2ccccc2)C1 (stereo not drawn) ?
96

Then c1cc(CNCCNCc2ccncc2)ccn1 ?
109

Then O=[N+]([O-])c1c(O)c(CNCCCO)cc(CNCCCO)c1O ?
93.9

Then COc1ccc2c(ccc[n+]2C)c1 ?
98.5

###

System: HOP-62 NSCLC
Test: NCI-60 one-dose screen, 48 h
Details: 10 µM unless noted
Compounds without any hit were thinned out: in the full panel of roughly 83,000, 20% have a hit. Calls of active or inactive are those of the source. The calls were made as follows: active = growth percent below 10; inactive = the rest.
Return exactly one item of true (1) = active, false (0) = inactive

Any idea what this test logged for CC1(C)OC2C(CO)OC(n3ccc(=O)[nH]c3=O)C2O1 (configuration not stated) ?
false (0)

Then Nc1cc2ccccc2c(O)c1O ?
false (0)

Then CCN(C(=O)Nc1ccccc1Cl)c1ccccc1 ?
false (0)

Then O=C1C=CC(=O)C2=C1CCCC2 ?
false (0)

Then CCOC(=O)C1(N)CCCCC1 ?
false (0)

Then CC(=O)c1ccc(C)cc1 ?
false (0)

Then Cc1ccc(S(=O)(=O)Oc2ccc3sc4c(CO)ccc(NCCN(C)C)c4c(=O)c3c2)cc1 ?
true (1)

###

Tested on: OVCAR-5 ovarian
Assay: NCI-60 one-dose screen, 48 h (100 = growth as untreated, 0 = no growth, -100 = all killed)
Conditions: 10 µM unless noted
About 83,000 compounds went through this panel and 20% of them were active in at least one assay; those are over-represented in the sample as a whole.
measure: growth (%)
Reply with just the number (in %).

Lab note: need growth with OVCAR-5 ovarian for entry CC(C)c1ccccc1NC(=O)N1CCC(C(C)C)CC1 , please look it up.
117

Then CCNCC(C)(C)O ?
100

Then CN(CCCN(C)CCC1CCCCC1)CCC1CCCCC1 ?
56.4

Then Cc1[nH]c(=S)[nH]c(=O)c1C ?
101

Then Cc1cc(Cl)cc(Cc2cc(Cl)cc(C)c2O)c1O ?
69

Then OCCOc1ccc(-c2cc(-c3ccccn3)nc(-c3ccccn3)c2)cc1 ?
-36.4

Then Nc1cc2c(cc1Cl)C(=O)c1ccccc1C2=O ?
58.5

Then CC(C)C(C)(C)C(=O)C(C)(C)C(C)(C)C ?
97.5

Then C=CCC(OC(C)=O)c1ccc(C(C)C)cc1 (configuration not stated) ?
109

Then Cc1cccc(-[n+]2noc(N)n2)c1 ?
99.2

Then COc1ccc2c(ccc[n+]2C)c1 ?
99.9

Then Oc1ccc2ccccc2c1CN1CCOCC1 ?
113

Then NC(CO)(CO)c1ccccc1 ?
101

Then CN1C(=O)NC(c2ccc(Cl)cc2)(c2ccc(Cl)cc2)C1=O ?
112

Then C=C1CC2(OC1=O)C(=O)N(C)c1ccc(I)cc12 (configuration not stated) ?
-10.3

Then CCCNS(=O)(=O)c1ccc(Cl)cc1 ?
110

Then NNC(=O)c1ccccc1N ?
89.8

Then C=C1C(=O)C2CCC1C2 (configuration not stated) ?
101

Then O=C(c1ccccc1O)N1CCCC1 ?
98.9

Then NC(=O)OCCO ?
107

Then Nc1c(O)c(S(=O)(=O)O)c(O)c2c1C(=O)c1ccccc1C2=O ?
42.8

Then Oc1cccc(CNC2CCCCC2)c1 ?
108

Then O=C(O)CSCC(=O)Nc1cc(C(F)(F)F)ccc1Cl ?
104

Then CCOC(=O)C(COS(C)(=O)=O)(COS(C)(=O)=O)C(=O)OCC ?
105

Then Cc1nc(C)c(C(=O)O)cc1C(=O)O ?
97.5

Then Clc1ncnc2nc[nH]c12 ?
101

Then Cc1c(Cl)cccc1N=C=S ?
93.1

Then Cc1ccc(S(=O)(=O)NC(=O)NCCSSCCNC(=O)NS(=O)(=O)c2ccc(C)cc2)cc1 ?
93.6

Then COc1cc(OC)c2cc(C(=O)c3ccc(C#N)cc3)c(=O)oc2c1 ?
89.9

Then O=C(Oc1ccccc1Cl)c1ccc(Cl)cc1Cl ?
109

Then COc1c(CNC(=O)CCl)cc2[nH]c(C)cc2c1CNC(=O)CCl ?
96.7

Then CCOC(=O)Nc1nccs1 ?
110

Then CC(=O)c1ccc(C)cc1 ?
104

Then Cc1cc(C)cc(OCC(=O)O)c1 ?
94.6

Then Cc1ccc[n+](CCC(N)=O)c1 ?
93.8

Then Nc1ccc(F)cc1F ?
96.3

Then CCN(C(C)=O)c1ccc([N+](=O)[O-])cc1 ?
111

Then Cc1cc(NC(=O)c2ccccc2)c(Cl)cc1N ?
103

Then Cc1cc(Nc2ccc3c(c2)OCO3)c2cc3c(cc2n1)OCO3 ?
45

Then CCOC(=O)C(C#N)=C1CCN(C)CC1 ?
111

Then CC(c1ccccc1)N(C)C (configuration not stated) ?
92.8

Then C/C(=N\O)c1ccccn1 ?
106

Then O=C(N/N=C\c1ccc(Cl)cc1Cl)c1ccncc1 ?
105

Then O=C(O)CC1=CCCCC1 ?
98.5

Then S=C=Nc1ccc2ccccc2c1 ?
107

Then O=C(CCCl)OCCOc1ccccc1 ?
109

Then Oc1ccc(CCC2CCNc3ccccc32)cc1 (configuration not stated) ?
97.9

Then OCCNc1ccccc1 ?
107

Then CCCCCCCCCCC(=O)CCCCCCCCCC ?
103

Then CCOC(=O)CO ?
105

Then Clc1ccc(C(SCc2ccccc2)SCc2ccccc2)cc1 ?
93.3

Then CN=S(=O)(OCCCCCOS(=O)(=NC)c1ccc(C)cc1)c1ccc(C)cc1 (configuration not stated) ?
106

Then FC(F)(F)c1cc(NC2=NCCN=C(Nc3cc(C(F)(F)F)cc(C(F)(F)F)c3)SS2)cc(C(F)(F)F)c1 ?
102

Then Cc1ccc2nc(N)nnc2c1 ?
102

Then Cc1nc(O)cc(=O)[nH]1 ?
110

Then CSc1nc2[nH]ncc2c(=O)[nH]1 ?
97.7

Then CNc1ccccc1C(=O)N/N=C/C=C/c1ccccc1 ?
47.1
